assayTarget: T1, Peptide-4 (cysteine pairing not given here; also: biotinylated, site not given here)
T1 peptide: VDFCKIYAWPICGS
experiment: ELISA, Fab on captured biotin-peptide
Where no end group is shown, it is not given here.
Each entry below carries its recorded pEC50.
In textbook form, pEC50 equals minus log to base ten of the concentration in mol/L.

binder	valueReported
TBD-21 (HC F108A) (Fab, V domains shown, Fab; also called HC F108A mutant) VH: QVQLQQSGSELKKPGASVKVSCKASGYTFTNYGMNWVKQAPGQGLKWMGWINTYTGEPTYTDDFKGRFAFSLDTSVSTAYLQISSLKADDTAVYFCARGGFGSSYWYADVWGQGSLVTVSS VL: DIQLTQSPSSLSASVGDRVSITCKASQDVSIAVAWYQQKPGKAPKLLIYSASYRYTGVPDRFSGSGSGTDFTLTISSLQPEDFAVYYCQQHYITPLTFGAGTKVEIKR	7.90
TBD-6 (LC I93A) (Fab, V domains shown, Fab; also called LC I93A mutant) VH: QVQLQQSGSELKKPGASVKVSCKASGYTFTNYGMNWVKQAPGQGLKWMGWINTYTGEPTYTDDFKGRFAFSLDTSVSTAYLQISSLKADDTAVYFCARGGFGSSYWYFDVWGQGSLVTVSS VL: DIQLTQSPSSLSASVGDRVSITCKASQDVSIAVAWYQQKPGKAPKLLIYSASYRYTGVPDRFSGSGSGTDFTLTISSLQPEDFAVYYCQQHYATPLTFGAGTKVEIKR	7.82

Here is the next item to consider.
Return pEC50 for the following binder: TBD-1 wt (Fab, V domains shown, Fab; the heavy chain entry is VH-CH1; also called wild-type anti-TROP2 Fab (hRS7); TROP2 Fab) VH: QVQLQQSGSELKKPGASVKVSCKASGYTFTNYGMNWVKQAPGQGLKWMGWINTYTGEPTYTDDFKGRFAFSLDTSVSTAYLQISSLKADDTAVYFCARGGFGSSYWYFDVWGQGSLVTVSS VL: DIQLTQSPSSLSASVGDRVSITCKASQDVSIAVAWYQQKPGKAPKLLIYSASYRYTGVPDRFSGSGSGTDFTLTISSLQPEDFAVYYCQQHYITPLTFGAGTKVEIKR
8.04
